Measured IC50 (hENPP2 (Homo sapiens, UniProt Q13822))

Solved entries (count: 5):
{"columns": ["MOLECULE", "PROPERTY_MEASURED", "RESULT"],
 "data": [
  ["CCOc1cc2[nH]nnc2cc1C(=O)N1CC[C@H](N2Cc3cnc(Nc4cc(C)cc(C)c4)nc3C2)C[C@H]1C (single isomer, unassigned)", "IC50", "0.01 to 100 nM"],
  ["Cc1cc(C)cc(Nc2ncc3c(n2)CN([C@@H]2CCN(C(=O)c4ccc5[nH]c(=O)[nH]c5c4)[C@H](C)C2)C3)c1", "IC50", "0.01 to 100 nM"],
  ["CCOc1cc2[nH]nnc2cc1C(=O)N1CC[C@@H](N2Cc3cnc(Nc4cc(C)cc(C)c4)nc3C2)C[C@H]1C (single isomer, unassigned)", "IC50", "0.01 to 100 nM"],
  ["Cc1cc(C)cc(Nc2ncc3c(n2)CN([C@H]2CCN(C(=O)c4cccc(-c5nnn[nH]5)c4)[C@@H](C)C2)C3)c1", "IC50", "> 1000 nM"],
  ["Cc1cc(C)cc(Nc2ncc3c(n2)CN(C2CN(C(=O)c4ccc5[nH]c(=O)sc5c4)C2)C3)c1", "IC50", "0.01 to 100 nM"]
]}

Consider now this further molecule.
(Q) Specify measured IC50 for `COc1cc(F)cc(Nc2ncc3c(n2)CN([C@@H]2CCN(C(=O)c4ccnc(NS(C)(=O)=O)c4)[C@H](C)C2)C3)c1` .
(A) 100 to 500 nM
